Molecular target: T1, 4H697-AA
T1 chain: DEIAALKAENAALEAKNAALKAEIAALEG
Assay: two-hybrid library CCmax;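 further: natural log of median RNA to DNA barcode read ratio; higher means stronger binding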
Conditions: mean of both orientations
result type: interaction score

>>> test_result("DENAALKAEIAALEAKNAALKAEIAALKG [4H1594-AA]")
-2.03
>>> test_result("DKIAALKAKNAALKAKIAALKAKNAALKG [4H3056-AA]")
-1.44
>>> test_result("DKNAALKAEIAALEAEIAALEAENAALKG [4H3588-AA]")
-1.44
>>> test_result("DKNAALEAKIAALEAKNAALEAEIAALKG [4H3378-AA]")
-2.13
>>> test_result("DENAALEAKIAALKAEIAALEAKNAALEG [4H1351-AA]")
-1.65
>>> test_result("DEIAALEAKIAALKAENAALEAENAALKG [4H340-AA]")
-1.32
>>> test_result("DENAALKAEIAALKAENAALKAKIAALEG [4H1629-AA]")
-1.58
>>> test_result("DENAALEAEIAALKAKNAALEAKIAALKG [4H1142-AA]")
-1.71
>>> test_result("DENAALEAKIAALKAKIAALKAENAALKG [4H1388-AA]")
-1.54
>>> test_result("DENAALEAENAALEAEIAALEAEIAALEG [4H1153-AA]")
-1.68
>>> test_result("DKIAALKAEIAALKAENAALEAKNAALKG [4H2648-AA]")
-1.14
>>> test_result("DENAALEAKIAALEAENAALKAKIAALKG [4H1310-AA]")
-1.05
>>> test_result("DKIAALEAKNAALKAKNAALKAEIAALEG [4H2553-AA]")
-1
>>> test_result("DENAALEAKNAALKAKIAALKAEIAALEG [4H1513-AA]")
-1.68
